target: Streptavidin (Streptomyces avidinii) (UniProt P22629); experiment: streptavidin binders on small-molecule microarray, primary screen, artefact control for SMM compound annotation, biophysical, 635/667 nm fluorescence (AID 1147); conditions: streptavidin binding, higher = more signal;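 further: signal reflects streptavidin binding to arrayed compounds as a control protein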
Sequence (P22629 whole entry, looked up): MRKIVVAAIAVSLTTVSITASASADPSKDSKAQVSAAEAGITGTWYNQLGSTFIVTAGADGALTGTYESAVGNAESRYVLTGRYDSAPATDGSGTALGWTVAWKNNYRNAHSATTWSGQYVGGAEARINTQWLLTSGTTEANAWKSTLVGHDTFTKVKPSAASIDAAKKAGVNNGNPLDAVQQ
# binarize composite z-score: threshold 0.9 inclusive, high side 1 (yes), low side 0 (no)

{"compound": "COC(=O)c1ccc([C@H](NC(=O)c2ccco2)[C@]2(C)C[C@H]2C2CCCCC2)cc1", "qualitative.label": "0 (no)"}
{"compound": "COC(=O)[C@@]1(Cc2ccc(OC)cc2)[C@H]2c3cc(C(=O)N(C)C)n(C[C@H](O)CO)c3C[C@H]2CN1C(=O)c1ccccc1", "qualitative.label": "1 (yes)"}
{"compound": "N#Cc1ccc(NN2C(C(O)c3ccc(F)cc3)C=CC3C(=O)N(c4ccccc4)C(=O)C32)cc1 (configuration not stated)", "qualitative.label": "1 (yes)"}
{"compound": "[N-]=[N+]=NCc1ccccc1C[C@@]1(C(=O)N2CCCCC2)N=C(c2ccc(OCCCO)cc2)O[C@@H]1c1ccccc1", "qualitative.label": "0 (no)"}
{"compound": "COCCOC(=O)N1C(=O)[C@@]2(c3cc(C#CC4=CCCCC4)ccc31)[C@H](c1ccccc1OCCO)N1[C@H](c3ccccc3)[C@H](c3ccccc3)OC(=O)[C@H]1[C@@H]2C(=O)Nc1nc2ccccc2s1", "qualitative.label": "0 (no)"}
{"compound": "CCCCCCCCCCC(O)C1C=CC2C(=O)N(C)C(=O)C2N1NC(=O)OC(C)(C)C (configuration not stated)", "qualitative.label": "0 (no)"}
{"compound": "[N-]=[N+]=NCc1ccccc1C[C@@]1(C(=O)N2CCOCC2)N=C(c2ccc(OCCCO)cc2)O[C@@H]1c1ccccc1", "qualitative.label": "1 (yes)"}
